# assay text: Systemic toxicity after six cycles of administration of PFD, analysis of serum
# Assay type: in vivo
# measurement parameters: PFD dose volume 1 ml/head, 6 doses (time/day), blood collection Day 2
reported metric: Calcium
Express the reported value numerically, then name its unit.

Qu. Recall and state the measured Calcium for FC1(F)C(F)(F)C(F)(F)C2(F)C(F)(F)C(F)(F)C(F)(F)C(F)(F)C2(F)C1(F)F (stereo not shown) [PFD, octadecafluorodecahydronaphthalene] .
Ans. 10.1 mg/dL

----------
# assay text: Systemic toxicity after six cycles of administration of PFD, analysis of serum
# Format: in vivo
# measurement parameters: PFD dose volume 1.5 ml/head, 6 doses (time/day), blood collection Day 2
reported metric: Platelets

Qu. Recall and state the measured Platelets for FC1(F)C(F)(F)C(F)(F)C2(F)C(F)(F)C(F)(F)C(F)(F)C(F)(F)C2(F)C1(F)F (stereo not shown) [PFD, octadecafluorodecahydronaphthalene] .
Ans. 124 10^4/µL
